Recorded measurements of pEC50, one per entry
study system: fusion protein from the PR-ligand-binding domain and a Gal4-transactivation domain (Homo sapiens (Human))
Sequence (P06401 679-913): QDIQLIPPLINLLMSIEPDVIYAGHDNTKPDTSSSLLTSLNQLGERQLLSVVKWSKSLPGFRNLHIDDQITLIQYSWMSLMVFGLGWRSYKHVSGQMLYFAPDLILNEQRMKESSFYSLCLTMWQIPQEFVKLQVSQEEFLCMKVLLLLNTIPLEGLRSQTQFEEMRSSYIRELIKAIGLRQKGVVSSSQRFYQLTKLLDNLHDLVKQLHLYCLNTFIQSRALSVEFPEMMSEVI
method description: cell-based
pEC50: −log10 of the molar value.

| compound | pEC50 |
| --- | --- |
| C[C@@H]1CC2=CC(=O)CC[C@@H]2[C@H]2CC[C@@]3(C)[C@@H](CC[C@@]34C=CC(=O)O4)[C@@H]21 (stereo in doubt) | 6.66 |
| CC[C@@H]1CC2=CC(=O)CC[C@@H]2[C@H]2CC[C@@]3(C)[C@@H](CC[C@@]34C=CC(=O)O4)[C@H]12 (stereo in doubt) | 6.11 |
| CC[C@]12CC[C@H]3[C@@H](CCC4=C(Cl)C(=O)CC[C@@H]43)[C@@H]1CC[C@@]21C=CC(=O)O1 | 6.00 |
| C[C@]12CC[C@H]3[C@@H](CCC4=CC(=O)CC[C@@H]43)[C@@H]1CC1(CC1)[C@@]21C=CC(=O)O1 (stereo in doubt) | 7.89 |
| C=C[C@@H]1CC2=CC(=O)CC[C@@H]2[C@H]2CC[C@@]3(CC)[C@@H](CC[C@@]34C=CC(=O)O4)[C@@H]21 (stereo in doubt) [Example 10A] | 6.85 |
| CC[C@]12CC[C@H]3[C@@H]([C@H](C4CC4)CC4=CC(=O)CC[C@@H]43)[C@@H]1CC[C@@]21C=CC(=O)O1 (stereo in doubt) [Example 11A] | 6.92 |
| C=C[C@@H]1CC2=CC(=O)CC[C@@H]2[C@H]2CC[C@@]3(C)[C@@H](CC[C@@]34C=CC(=O)O4)[C@@H]21 (stereo in doubt) | 6.85 |
